# Test system: LOX IMVI melanoma
# measurement-description: NCI tumour cell line growth inhibition, 48 h
Each record here notes measured log10(TGI).
observation-type: log10(TGI) (log10 of the value in µM)

{"compound": "Cc1cc(C(=O)c2ccccc2)c(C)c2c1[nH]c1ccc(Cl)cc12", "measurement-target": "LOX IMVI melanoma", "measured-value": 1.01}
{"compound": "Cc1cc(S(=O)(=O)/N=C(/NN)NNc2cccc(C(F)(F)F)n2)c(S)cc1Cl", "measurement-target": "LOX IMVI melanoma", "measured-value": 1.60}
{"compound": "COc1cc(-c2csc(NC(=O)Nc3cc(Cl)cc(Cl)c3)n2)cc(OC)c1OC", "measurement-target": "LOX IMVI melanoma", "measured-value": 0.60}
{"compound": "CC1(C)CCc2c(c(N=Nc3ccc(F)cc3)c3ccccc3c2O)O1", "measurement-target": "LOX IMVI melanoma", "measured-value": 1.67}
{"compound": "COC(=O)c1c(O)ccc2c1c1c(n2Cc2ccccc2)C(=O)c2ccccc2C1", "measurement-target": "LOX IMVI melanoma", "measured-value": 1.84}
{"compound": "CCCCCCCCCCCCCCCCCC(=O)Nc1ccn(C2OC(CO)C(O)C2O)c(=O)n1 (stereo unspecified)", "measurement-target": "LOX IMVI melanoma", "measured-value": 1.60}
{"compound": "Fc1cc(-c2cc(-c3ccc4c(c3)OCO4)n[nH]2)c(Cl)cc1Cl", "measurement-target": "LOX IMVI melanoma", "measured-value": 0.93}

====

# System: M14 melanoma
# measurement-description: NCI tumour cell line growth inhibition, 48 h
Each record here notes measured log10(TGI).
observation-type: log10(TGI) (log10 of the value in µM)

{"compound": "O=c1ccc2nc(-c3ccccn3)nn(-c3ccccc3)c-2c1", "measured-value": 1.13}
{"compound": "Cc1cc(I)cc(CN(C)CCCN2CCN(C)CC2)c1O", "measured-value": 1.38}
{"compound": "O=c1oc2c(C(F)(F)F)cccc2cc1-c1csc(Nc2ccc(OCCF)cc2)n1", "measured-value": 0.06}
{"compound": "COC(=O)C1=C(C(=O)OC)SC2(S1)C(C(=O)OC)=C(C(=O)OC)Sc1c2ssc1=NC(C)(C)C", "measured-value": 0.50}
{"compound": "Cc1ccc([C@]2(C)CC[C@H](C)/C2=C\\Br)c(O)c1", "measured-value": 1.12}
{"compound": "CC(C)(C)[Si](C)(C)OCC1OC(n2cnc3c(=O)[nH]c(N)nc32)C(O[Si](C)(C)C(C)(C)C)C1O[Si](C)(C)C(C)(C)C (centres undefined)", "measured-value": 0.46}
{"compound": "CC1(C)CCc2c(c(N=Nc3ccc(F)cc3)c3ccccc3c2O)O1", "measured-value": 1.60}
{"compound": "Cn1cccc1/C=C/c1cc(Br)c(/C=C/c2cccn2C)cc1Br", "measured-value": 1.76}
{"compound": "Oc1cc(Br)cc2cc(Cl)cnc12", "measured-value": 1.02}

====

# Tested on: NCI-H23 lung
# measurement-description: NCI tumour cell line growth inhibition, 48 h; in the data active = GI50 below about 0.43 µM; inactive = the rest
Possible outcomes: active, inactive

{"compound": "O=C(c1ccccc1)c1c(C(F)(F)F)n([O-])c2ccc(C(F)(F)F)cc2[n+]1=O", "measurement-target": "NCI-H23 lung", "assigned-category": "inactive"}
{"compound": "O=C1OCC2=C1C(c1ccccc1)c1cc3c(cc1N2CCO)OCCO3 (stereo unspecified)", "measurement-target": "NCI-H23 lung", "assigned-category": "inactive"}
{"compound": "O=C1C(Cl)=C(Nc2cccc(C(F)(F)F)c2)C(=O)N1Cc1ccc(Cl)cc1", "measurement-target": "NCI-H23 lung", "assigned-category": "active"}
{"compound": "Cc1cc(I)cc(CN(C)CCCN2CCN(C)CC2)c1O", "measurement-target": "NCI-H23 lung", "assigned-category": "inactive"}
{"compound": "C=CC(COC(c1ccccc1)(c1ccccc1)c1ccccc1)N(CC)CC (stereo unspecified)", "measurement-target": "NCI-H23 lung", "assigned-category": "inactive"}
{"compound": "O=C(NC(=S)Nc1cc(Cl)ccc1O)c1cccc(Br)c1", "measurement-target": "NCI-H23 lung", "assigned-category": "inactive"}
{"compound": "Brc1ccc2c(-c3csc(-c4c[nH]c5ccccc45)n3)c[nH]c2c1", "measurement-target": "NCI-H23 lung", "assigned-category": "inactive"}
{"compound": "Cc1ccc(-c2cc(O)c(-c3ccc(C)cc3C)cc2O)c(C)c1", "measurement-target": "NCI-H23 lung", "assigned-category": "inactive"}
{"compound": "N.N.O=P([O-])([O-])C1(P(=O)([O-])[O-])CCCCCN1.[Pt+2]", "measurement-target": "NCI-H23 lung", "assigned-category": "inactive"}
{"compound": "CCC[CH2][Sn]1([CH2]CCC)[O]CC(C)[O]1 (stereo unspecified)", "measurement-target": "NCI-H23 lung", "assigned-category": "inactive"}
{"compound": "CC#Cc1nc(Nc2cc(C)[nH]n2)c2ccccc2n1", "measurement-target": "NCI-H23 lung", "assigned-category": "inactive"}

====

Each record here notes measured TGI.
# System: RPMI-8226 leukemia
# measurement-description: NCI tumour cell line growth inhibition, 48 h

{"molecule": "CCCCCCCCCCC(C)CCCCCCC(=O)O (stereo not drawn)", "TGI": "> 100 µM"}
{"molecule": "CCOC(=O)C(NC(=O)OC(C)(C)C)C(=O)OCC", "TGI": "> 100 µM"}
{"molecule": "COc1ccc(C(=O)/C=C/c2cc(O)c(O)cc2F)c(OC)c1", "TGI": "36.4 µM"}
{"molecule": "O=C(/C=C\\c1cccc2ccccc12)c1cccc2ccccc12", "TGI": "> 100 µM"}
{"molecule": "CCCCNC(=O)/N=C/c1c(O)c2ccccc2oc1=O", "TGI": "> 100 µM"}
{"molecule": "Cc1nc2ccccc2c(/C=C/c2ccc(Cl)cc2)c1C(=O)/C=C/c1ccccc1", "TGI": "6.5 µM"}
{"molecule": "Nc1c(C(=O)Nc2cccc(Cl)c2Cl)sc2nc3c(cc12)C(=O)CCC3", "TGI": "> 100 µM"}
{"molecule": "NC1CC=C(COC(=O)C(O)(c2ccccc2)C2CC2)CC1 (stereo not drawn)", "TGI": "> 100 µM"}
{"molecule": "CC(C)(C)CC(C)(C)c1ccc(O)c(C[N+](C)(C)[O-])c1", "TGI": "> 100 µM"}
{"molecule": "CCCCCCCCCCCCCCCCCC(=O)Nc1ccn(C2OC(CO)C(O)C2O)c(=O)n1 (stereo not drawn)", "TGI": "> 100 µM"}
{"molecule": "O=C(NC(=O)c1ccccc1[N+](=O)[O-])Nc1ccc(Oc2ncc(Cl)cn2)c(C(F)(F)F)c1", "TGI": "> 67.9 µM"}
{"molecule": "O=C(O)C(Oc1nc(=S)[nH]c(=S)[nH]1)(c1ccc(Cl)cc1)c1ccc(Cl)cc1", "TGI": "> 100 µM"}
{"molecule": "Cc1sc2nc3n(c(=O)c2c1C)N=CN(c1ccc(F)cc1)C3", "TGI": "> 100 µM"}
{"molecule": "CC1=NN(c2nc(N)nc(/C=C\\c3ccc([N+](=O)[O-])s3)n2)C(C)(C)C1", "TGI": "> 100 µM"}
{"molecule": "COc1ccc(N2NC(c3ccccc3)(c3ccccc3)C(C)C2=O)cc1 (stereo not drawn)", "TGI": "> 100 µM"}
{"molecule": "COc1cc(NC(=O)C2=C(N3CCOCC3)/C(=C/c3ccc(Cl)cc3)CC2)cc(OC)c1OC", "TGI": "> 100 µM"}
{"molecule": "COc1ccc(C2=NN=C3C(c4ccccc4)=Nc4ccccc4N3C2)cc1", "TGI": "> 100 µM"}
{"molecule": "COC(=O)C(C)NC(=O)c1ccccc1I(OS(=O)(=O)C(F)(F)F)c1ccccc1 (stereo not drawn)", "TGI": "25.8 µM"}
{"molecule": "CC(C)=CC(=O)Cc1nc2ccc([N+](=O)[O-])cc2[nH]c1=O", "TGI": "> 100 µM"}
{"molecule": "O=c1oc2ccccc2c(O)c1C(C/C(CCN1CCCC1)=N\\Nc1ccccc1)c1ccccc1 (stereo not drawn)", "TGI": "77.7 µM"}
{"molecule": "OC(CC(O)(C(F)(F)F)C(F)(F)F)c1ccc(C(O)CC(O)(C(F)(F)F)C(F)(F)F)cc1 (stereo not drawn)", "TGI": "48.8 µM"}
{"molecule": "NNC(=O)C(=O)N/N=C(\\CCC(=O)Nc1ccc(Cl)cc1)Cc1nc2ccccc2s1", "TGI": "> 100 µM"}
{"molecule": "CCN(CC)CC(=N)N(CC)c1ccccc1", "TGI": "> 100 µM"}
{"molecule": "O=c1oc2c(C(F)(F)F)cccc2cc1-c1csc(Nc2ccc(OCCF)cc2)n1", "TGI": "42.7 µM"}
{"molecule": "CCOc1ccc2c(c1)c(=O)c1c(NCCN(CC)CC)ccc3nnn2c31", "TGI": "> 65.1 µM"}
{"molecule": "C/C=N\\N1C(=O)c2ccccc2C1=O", "TGI": "> 100 µM"}
{"molecule": "CC(=O)c1nc2ccccc2n1CC(=O)c1cccc(Cl)c1", "TGI": "14.3 µM"}
{"molecule": "C[C@H]1COC2=C1C(=O)C(=O)c1c2ccc2c1CCCC2(C)C", "TGI": "71.2 µM"}
{"molecule": "CCOC(=O)/C=C(\\C(=O)OCC)n1ccc(=O)[nH]c1=O", "TGI": "34.4 µM"}
{"molecule": "COc1c(B(O)O)cc(F)cc1-c1nc2ccc3[nH]ncc3c2c2c1CCCC2", "TGI": "5.58 µM"}
{"molecule": "CCSc1ccc(C2C(Br)C(=O)N2c2cc(OC)c(OC)c(OC)c2)cc1 (stereo not drawn)", "TGI": "4.37 µM"}
{"molecule": "COc1cc(Br)c(CC2C3=C(CCN2C(=O)C2CCC2)CC(=O)CC3)cc1O (stereo not drawn)", "TGI": "> 100 µM"}
{"molecule": "Cc1cn(S(=O)(=O)c2ccccc2)c2c(OCc3ccccc3)cc(NS(C)(=O)=O)cc12", "TGI": "> 63.7 µM"}
